- System: HCT-15 colon
- Assay Explanation: NCI tumour cell line growth inhibition, 48 h; in the data active = GI50 below about 0.43 µM; inactive = the rest
Response enum: active, inactive

(Q) How was `COc1ccc(S(=O)(=O)Nc2cc(/C=C\c3cc(OC)c(OC)c(OC)c3)ccc2OC)cc1` classified in this test?
(A) active

(Q) Would you kindly repeat that for `O=S(=O)(c1cccc2c(Cl)cccc12)N1CCCNCC1` ?
(A) inactive

(Q) Would you kindly repeat that for `COc1cc(/C=C/C(=O)c2c(C)nc3ccccc3c2/C=C/c2ccc(C)cc2)cc(OC)c1OC` ?
(A) inactive

(Q) Would you kindly repeat that for `Clc1ccc2nnnn2n1` ?
(A) inactive

(Q) Would you kindly repeat that for `COc1ccc(-n2cc(-c3cc(OC)c(OC)c(OC)c3)nc2SCc2ccccc2)cc1OC` ?
(A) inactive

(Q) Would you kindly repeat that for `COc1cc(NC(=O)CSc2nc3ccc(C)cc3c(=O)n2Cc2ccccc2)cc(OC)c1OC` ?
(A) inactive

(Q) Would you kindly repeat that for CNC(=O)CC1NC(=O)c2csc(n2)-c2ccc(-c3nc(C4=NC(C(=O)N5CCCC5C(N)=O)CO4)cs3)nc2-c2csc(n2)-c2csc(n2)C(C(C)C)NC(=O)CNC(=O)c2csc(n2)C(C(C)C)NC(=O)c2nc1sc2C (stereo not drawn) ?
(A) inactive

(Q) Would you kindly repeat that for `S=c1ssc(Oc2ccccc2)c1Cl` ?
(A) inactive

* * *

- Test system: NCI-H23 lung
- Assay Explanation: NCI tumour cell line growth inhibition, 48 h
Measurement Label: TGI

(Q) I have this molecule here, `Oc1ccc(Cc2nccc3cc(O)c(O)cc23)cc1O` , and I need its recorded TGI.
(A) > 100 µM

(Q) Would you kindly repeat that for O=C(O)CCC(NC(=O)c1ccccc1)C(=O)O (configuration not stated) ?
(A) > 100 µM

(Q) Would you kindly repeat that for `COc1c(Br)cc(/C=C(\C#N)c2cccnc2)cc1Br` ?
(A) > 100 µM

(Q) Would you kindly repeat that for `NCCN.NCCN.O=C([O-])CCl.O=C([O-])CCl.[Co+3].[O-][Cl+3]([O-])([O-])[O-]` ?
(A) > 100 µM

(Q) Would you kindly repeat that for `Cc1ccc(N=Nc2ccc(N)cc2C)c(S(N)(=O)=O)c1` ?
(A) > 100 µM

(Q) Would you kindly repeat that for COc1cc(/C=C2\C(=O)N(c3ccccc3Cl)C(c3ccccc3)S2(=O)=O)cc(OC)c1OC (configuration not stated) ?
(A) > 100 µM

(Q) Would you kindly repeat that for Cc1ccc(N(C(=O)Nc2ccc(F)c(Cl)c2)C2=NCC(C)S2)cc1 (configuration not stated) ?
(A) > 100 µM

(Q) Would you kindly repeat that for `Cc1ccc([N+](=O)[O-])cc1NC(=O)c1cccc([N+](=O)[O-])c1O` ?
(A) 48.4 µM

(Q) Would you kindly repeat that for O=[N+]([O-])c1cc(C2SCc3nc4ccccc4n32)ccc1Cl (configuration not stated) ?
(A) 78.1 µM

(Q) Would you kindly repeat that for C/C=C(\C)C(=O)OC1C(C)=C2C(C1OC(=O)CCCC)C(C)(OC(C)=O)CC(OC(=O)CCCC)C1(O)C2OC(=O)C1(C)O (configuration not stated) ?
(A) > 47.4 µM

(Q) Would you kindly repeat that for `CN(C)CCCN1c2ccccc2C(C)(C)c2ccccc21` ?
(A) 30.4 µM

(Q) Would you kindly repeat that for `COC(=O)[C@@H](NC(=O)N(CCC#N)CCCN(C(=O)N[C@H](Cc1ccccc1)C(=O)OC)c1ccccc1)C(C)C` ?
(A) > 100 µM

(Q) Would you kindly repeat that for `C=C1C(=O)O[C@H]2[C@H](OC(C)=O)[C@@H](C)CCC/C(C)=C/CC[C@@]3(C)O[C@@H]3C[C@@H]12` ?
(A) 10.8 µM

(Q) Would you kindly repeat that for `COC(=O)C1(C(=O)OC)Cc2ccc(C)cc2C2=C1C(=O)c1ccccc1C2=O` ?
(A) 46.1 µM

(Q) Would you kindly repeat that for `FC(F)(F)c1ccc(C#Cc2ccccc2C#Cc2ccccc2)cc1` ?
(A) > 100 µM

(Q) Would you kindly repeat that for `C=CC[C@@]1([C@H](C=C)COCc2ccc(OC)cc2)CC[C@]2(C)OC(C)(C)[C@@H](c3ccccc3)N2C1=S` ?
(A) > 100 µM

(Q) Would you kindly repeat that for NC1=C(c2nc(-c3ccccc3)cs2)C(c2ccc(Br)cc2)c2c(c3ccccc3oc2=O)O1 (configuration not stated) ?
(A) > 150 µg/mL

(Q) Would you kindly repeat that for OC(c1cc(-c2ccc(Cl)cc2)nc2ccccc12)C1CCCCN1 (configuration not stated) ?
(A) 4.58 µM

(Q) Would you kindly repeat that for `Nc1nc2n[nH]nc2c(=O)[nH]1` ?
(A) > 100 µM

(Q) Would you kindly repeat that for `Cc1cc(NCc2cc(Nc3ccnc4cc(Cl)ccc34)ccc2F)nc(N2CCN(C)CC2)n1` ?
(A) 6.54 µM

(Q) Would you kindly repeat that for COC(=O)c1c2c(cc3c1CC1(Cc4ccc(C(C)=O)cc4C1)C3)CCC2 (configuration not stated) ?
(A) > 100 µM

(Q) Would you kindly repeat that for `COc1ccc(S(=O)(=O)Nc2cc(/C=C\c3cc(OC)c(OC)c(OC)c3)ccc2OC)cc1` ?
(A) > 100 µM
